- Test Method Notes: Rhesus IV Pharmacokinetics
- Format: in vivo, rhesus monkeys
- Measurement Setup: rhesus monkey, plasma; male rhesus monkeys n=4, 0.75 mg/kg IV, 4.00 hours
Assay Metric: concentration at 4 h (nM)
Your answer is read as nM, so omit the unit and give the number.

Molecule | concentration at 4 h / nM
CC(C)(F)C[C@H](N[C@@H](c1ccc(-c2ccc(S(C)(=O)=O)cc2)cc1)C(F)(F)F)C(=O)NC1(C#N)CC1 [Example D0-ODN, reference compound] | 462

Next up:
Entry [2H]C([2H])([2H])C(F)(C[C@H](N[C@@H](c1ccc(-c2ccc(S(C)(=O)=O)cc2)cc1)C(F)(F)F)C(=O)NC1(C#N)CC1)C([2H])([2H])[2H] [Example D6-ODN] : reported concentration at 4 h = ?
633

====

# concentration at 48 h values compiled below
- Test Method Notes: Rhesus IV Pharmacokinetics
- Assay type: in vivo, rhesus monkeys
- Measurement Setup: rhesus monkey, plasma; male rhesus monkeys n=4, 0.75 mg/kg IV, 48.00 hours
Your answer is read as nM, so omit the unit and give the number.

Molecule | concentration at 48 h [nM]
[2H]C([2H])([2H])C(F)(C[C@H](N[C@@H](c1ccc(-c2ccc(S(C)(=O)=O)cc2)cc1)C(F)(F)F)C(=O)NC1(C#N)CC1)C([2H])([2H])[2H] | 70.7

Entry CC(C)(F)C[C@H](N[C@@H](c1ccc(-c2ccc(S(C)(=O)=O)cc2)cc1)C(F)(F)F)C(=O)NC1(C#N)CC1 [Example D0-ODN, reference compound] : reported concentration at 48 h = ?
1.22

====

- Test Method Notes: Rhesus IV Pharmacokinetics
- Format: in vivo, rhesus monkeys
- Measurement Setup: rhesus monkey, plasma; male rhesus monkeys n=4, 0.75 mg/kg IV, 24.00 hours
Assay Metric: concentration at 24 h

Compound | concentration at 24 h
CC(C)(F)C[C@H](N[C@@H](c1ccc(-c2ccc(S(C)(=O)=O)cc2)cc1)C(F)(F)F)C(=O)NC1(C#N)CC1 [Example D0-ODN, reference compound] | 14.5 nM

Entry [2H]C([2H])([2H])C(F)(C[C@H](N[C@@H](c1ccc(-c2ccc(S(C)(=O)=O)cc2)cc1)C(F)(F)F)C(=O)NC1(C#N)CC1)C([2H])([2H])[2H] [Example D6-ODN] : reported concentration at 24 h = ?
273 nM
